assayed_system: T1, hIL-18BP-hFc (human, UniProt O95998 31-194, limits assumed)
T1 sequence (looked up): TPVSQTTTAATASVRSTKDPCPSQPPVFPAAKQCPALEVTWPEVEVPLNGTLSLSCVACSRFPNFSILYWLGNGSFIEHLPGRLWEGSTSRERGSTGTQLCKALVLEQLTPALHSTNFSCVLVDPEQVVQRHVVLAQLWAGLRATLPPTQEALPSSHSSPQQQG
protocol_notes: cell-based or functional assay
readout_kind: EC50 (nM) in the Presence of 1 µg/mL hIL-18BP-hFc, hIL-18 reporter assay
Please reply with the bare figure in nM and do not write the unit itself.

Inquiry: Given the entry IL-18 variant polypeptide MM2 (ligand) YFAKLYSKLSVIRNLNDQVLFIDQGNRPLFEDMTDSDCRDNAPRTIFIISMYKRSSLRGMAVTISVKCEKISTLSCENKIISFKEMNPPDGIKDTKSDIIFFQRSVPGHDNKMQFESSSYEGYFLACEKERDLFKLILKKEDELGDRSIMFTVQNED , report its measured EC50 (nM) in the Presence of 1 µg/mL hIL-18BP-hFc, hIL-18 reporter assay.
Reply text: 2.24

Inquiry: Given the entry IL-18 variant polypeptide M34 (ligand) YFPKLRSKLSVIRNLNDQVLFIDQGNRPLFEDMTDSDCRDNAPRTIFIISMYKHSRNRGMAVTISVKCEKISTLSCENKIISFKEMNPPDVIKDTKSDIIFFQESVPGHDNKMQFESSSYEGYFLACEKERDLFKLILKKEDELGDRSIMFTVQNED , report its measured EC50 (nM) in the Presence of 1 µg/mL hIL-18BP-hFc, hIL-18 reporter assay.
Reply text: 0.9

Inquiry: Given the entry IL-18 variant polypeptide M37 (ligand) YFPKLGSKLSVIRNLNDQVLFIDQGNRPLFEDMTDSDCRDNAPRTIFIISMYKQSVWRGMAVTISVKCEKISTLSCENKIISFKEMNPPDNIKDTKSDIIFFQRSVPGHDNKMQFESSSYEGYFLACEKERDLFKLILKKEDELGDRSIMFTVQNED , report its measured EC50 (nM) in the Presence of 1 µg/mL hIL-18BP-hFc, hIL-18 reporter assay.
Reply text: 0.33
